experiment: S. cerevisiae growth inhibition in permissive medium (OD615), pilot counter-assay for S. cerevisiae lifespan shortening project, permissive growth control (AID 705); conditions: OD615, 24 h, at 10 µM, stronger effect = higher value
Assay Endpoint: growth inhibition (%)
Quick reminder: number only, in %, skip the unit.

// below: answered molecules
Cc1ccc2[nH]c(=O)c3cc(C(=O)N4CCN(C(=O)c5ccco5)CC4)sc3c2c1 = 5.33
CCN(CC)S(=O)(=O)c1ccc(Cl)c(C(=O)Nc2nnc(C)s2)c1 = -6.93
COc1ccc(-n2nnc3c(=O)n(CC(=O)N4CCC(C)CC4)cnc32)cc1 = 8.16
NC(=O)c1cccc2c1C(=O)N(C1CCCCC1)C2 = -7.48
CC(C)c1nnc(NC(=O)c2ccc(N3C(=O)CCC3=O)cc2)s1 = -2.77
O=C(Oc1cccnc1)c1cccc(Cl)c1 = 6.51

Item: `N#CCCN1CCN(S(=O)(=O)c2ccc(S(=O)(=O)NC3CCCCC3)cc2)CC1` | growth inhibition: -1.9

GET /value?item= CN1C(=O)C(O)(CC(=O)c2ccc(F)cc2)c2cc(Br)ccc21 (configuration not stated) &field=growth inhibition returns -8.62

Reported growth inhibition for `COc1ccc(CCNC(=O)CCS(=O)(=O)c2cccc3nsnc23)cc1OC` was -10.1

Quick note, growth inhibition for CCN1CCN(CC(O)COc2ccc(C(C)=O)cc2)CC1 (configuration not stated) landed at -5.8

Value of measured growth inhibition for the entry `Cn1c(C(=O)NCCCN2CCN(c3ccc(F)cc3)CC2)cc2c(=O)n(C)c3ccccc3c21` : -6.23

What the record says about Cc1ccc2c(c1)-c1c(cnn1CC(=O)NC(C)CCc1ccco1)CO2 (configuration not stated) : growth inhibition is -10.4

# growth inhibition (molecule: Cc1cccc(-n2nc3c(c2NC(=O)CCC2CCCCC2)CS(=O)C3)c1C (configuration not stated) ) is -8.41

Lookup result for CSc1ccccc1NC(=O)C1CCCO1 (configuration not stated) ; measured growth inhibition: -8.35

So for `Cc1cccnc1-n1c(CCN2C(=O)c3ccccc3C2=O)nc2ccccc2c1=O` , the logged growth inhibition turned out to be 6.29

Please fill in: growth inhibition reported for `CN(C)c1ccc(S(=O)(=O)c2ccc(Cl)cc2)cc1` = 2.13

Sure, the documented growth inhibition for `C/C=C/CSc1nc2c(c(=O)[nH]c(=O)n2C)n1Cc1ccc(C)cc1` is 0.005

Per the record, COc1cc(NC(=O)C2CCCN2S(=O)(=O)c2cccc3cccnc23)cc(OC)c1OC (configuration not stated) has growth inhibition of 0.6

Short answer for `COc1ccc(C(=O)N2CCC(C(=O)Nc3cccc(C)c3)CC2)cc1OC` : growth inhibition was -0.875

###

experiment: growth suppression of yeast trafficking mutant, preliminary HTS, modulators of trafficking downstream of Golgi apparatus project, 1536-format plate, OD 615 nm (AID 637); details: yeast transport mutant growth, absorbance 615 nm, 18 h; stronger effect = higher value
Assay Endpoint: inhibition (%)
Report the figure in % without appending any unit label.

The compound listed as `COc1ccc(S(=O)(=O)NCc2ccc3c(c2)OCO3)cc1C(=O)O` has a reported inhibition of -0.33

Form: compound = Cc1[nH]nc2c1C(C1CC=CCC1)C(C#N)=C(N)O2 (stereo not drawn) ; inhibition = -9.17

// recorded inhibition for `CCCN(CCC)CCNC(=O)c1cc2c(=O)n(C)c3ccccc3c2n1C` : 1.67

Per the records, this compound ( `COc1ccc(OCCCC(=O)Nc2nncs2)cc1` ) has inhibition equal to -2.73

For this compound ( `Cc1ccccc1CSc1nnc(C)c(=O)[nH]1` ), measured inhibition is -0.17

Measured inhibition of `NC(=O)c1cccc2c1C(=O)N(C1CCCCC1)C2` : -1.33

Sample COc1cccc(NC(=O)C2CCCN(S(=O)(=O)c3cccc4cccnc34)C2)c1 (stereo not drawn) ; inhibition observed: -5.5

Just so you know, measured inhibition for `Cc1c(NC(=O)c2ccc(Br)o2)c(=O)n(-c2ccccc2)n1C` came out at -1.67

// sample `COc1ccc(-c2nc(CSCC(=O)NCc3ccc4c(c3)OCO4)c(C)o2)cc1OC` , its inhibition was 1.5

Sure, the documented inhibition for `CCn1cc(C(=O)N2CCOCC2)c(=O)c2cc(S(=O)(=O)N(C)C3CCCCC3)ccc21` is 0.5

###

test: S. cerevisiae growth inhibition in restrictive medium, OD615, pilot screen, restrictive growth control, yeast lifespan reduction project (AID 706); settings: OD615, 48 h, at 10 µM, stronger effect = higher value;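 further: modified DeaD lifespan yeast strain shifted to restrictive glucose medium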
growth inhibition for assorted compounds
Report the value in % with no unit label.

Example entries and their recorded answers appear below.
COc1cc2c(cc1OC)C(C)N(C(=O)Cn1ncc3c1-c1ccccc1OC3)CC2 (stereo not given) = -8.14
Cc1ccc(C2N(c3ccc(F)cc3)C(=O)C3CCCN32)cc1 (stereo not given) = -4.53
COc1ccc(C(C)N2CC34C=CC(O3)C(C(=O)OCC(C)C)C4C2=O)cc1 (stereo not given) = -7.06

GET /value?item= O=C1c2ccccc2C(Nc2ccc(F)cc2F)N1CCN1CCOCC1 (stereo not given) &field=growth inhibition returns -1.68

# growth inhibition (compound: `COc1ccc(N(CC(=O)Nc2ccc3c(c2)OCO3)S(=O)(=O)c2c(C)nn(C)c2C)cc1` ) is -11.5

###

test: RAM pathway blockade in budding yeast – dse1pr::URA3 reporter, 5-FOA selection, pilot screen (AID 869);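 further: 0% = DMSO wells with no growth and 100% = 10 µM 1-NA-PP1 with full growth; RAM network block rescues cells from 5-FOA so hits raise OD615 growth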; details: S. cerevisiae dse1pr::URA3 5-FOA growth, OD615, 2 d; at 10 µM; stronger effect = higher value; strain carries analog-sensitive mutant Cbk1 kinase
Assay Endpoint: inhibition (%)
All answers are understood in %, so give the number only.

COc1ccc(S(=O)(=O)Cc2ccc(C(=O)N3CCN(c4ccccc4)CC3)o2)cc1 = 0.76
COc1ccc(C(=O)NCc2nc3ccccc3[nH]2)cc1OC = 2.96
CC(C)NC(=O)c1ccc2c(c1)nnn2C = 2

Per the record, CC1=C(C(=O)OCc2ccccc2)C(c2ccco2)n2ncnc2N1 (stereo not given) has inhibition of 0.83

Looking up `O=C(CCCn1c(=O)c2sccc2n(Cc2cc(=O)n3ccccc3n2)c1=O)NCc1ccco1` , I see its inhibition listed as -0.225

Entry COc1cc(C2C(C(=O)Nc3ccc(F)cc3)=C(C)Nc3nc(CCCO)nn32)cc(OC)c1OC (stereo not given) — recorded inhibition = 2.58

Short answer for CCc1ccc(N2CC(C(=O)OCC(=O)NC3CCS(=O)(=O)C3)CC2=O)cc1 (stereo not given) : inhibition was 0.795

Just so you know, measured inhibition for NC(=O)C1CCN(C(=O)c2cc3n(n2)C(C(F)(F)F)CC(c2ccco2)N3)CC1 (stereo not given) came out at 2.2

Just so you know, measured inhibition for Cc1ccc(S(=O)(=O)N(CC(O)CN2CCCCC2)c2ccccc2)cc1 (stereo not given) came out at 2.97

Value of inhibition reported for the molecule `Cc1nc2ccccc2c2oc(C(=O)NCCCN3CCCC3=O)cc12` is 1.9

###

experiment: S. cerevisiae growth inhibition in restrictive medium, OD615, pilot screen, restrictive growth control, yeast lifespan reduction project (AID 706); settings: OD615, 48 h, at 10 µM, stronger effect = higher value;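 further: modified DeaD lifespan yeast strain shifted to restrictive glucose medium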
Assay Endpoint: growth inhibition (%)
Reply with just the number (in %).

COc1cc(S(=O)(=O)N2CCN(c3ccccc3)CC2)ccc1Cl = -14
CSc1cccc(NC(=O)C2CCN(S(=O)(=O)c3ccc(F)cc3)CC2)c1 = -13.7
Nc1nc(SCC(=O)OCc2ccccc2)[nH]c(=O)c1NC(=O)c1ccco1 = -11.7

The measured growth inhibition associated with `CN1CCN(CCCNC(=O)c2ccc(CS(=O)(=O)c3ccc(Br)cc3)o2)CC1` reads -12.5

Per the record, `Cc1cccc(NC(=O)c2ccc(S(=O)(=O)N(C)C)cc2)c1` has growth inhibition of -8.44

get_value(item= `O=C(CCCOc1ccc(Cl)cc1)N1CCCCC1` , readout=growth inhibition) returns -11.9

So, CCCCOc1ccccc1NC(=O)CC1Nc2ccccc2NC1=O (centres undefined) ? Its growth inhibition was 0.91

Input `Cc1nc(NCc2ccc3c(c2)OCO3)c2oc3ccccc3c2n1` . Output growth inhibition: -6.14

growth inhibition in this record for `O=C(NC1CCCCCC1)c1c(F)c(F)c(F)c(F)c1F` : 7.52

Lab note: `Clc1ccc(-c2nnc(SCc3nc(-c4ccccc4)no3)o2)cc1` gave growth inhibition of -9.97

###

assay: MRP1 drug-resistance reversers in H69AR cells – cell-based, doxorubicin co-treatment, pilot screen (AID 601); conditions: H69AR cells, CellTiter-Glo, 72 h; compound alone cytotoxicity; at 10 µM
Catalogue of viability readings, one per entry.
Express the result in % but write the number alone.

Noted for `COc1ccc(N(CC(=O)O)S(=O)(=O)c2ccc(OC)c(OC)c2)cc1` : its viability reads 90.3

Consider `c1ccc(-c2nnc(CSc3nncs3)o2)cc1` . Its measured viability is 106

The recorded viability for entry `CCOC(=O)c1c(C)n(C)c2c(C)cc(O)c(OC(C)=O)c12` equals 101

Entry under test: CC(CCc1ccco1)NC(=O)Cn1ncc2c1-c1ccccc1OC2 (configuration not stated) . Its viability was 92.9

Per the records, this compound ( Cc1cc(NC(=O)CSc2nc3c(c(=O)n2Cc2ccccc2)SC(C)C3)no1 (configuration not stated) ) has viability equal to 92.1

// viability lookup, compound = `CCN1CCN(C(=O)c2cn(CC)c3ccc(S(=O)(=O)N(C)C)cc3c2=O)CC1` , result: 107

Query `Cc1ccc(Cn2c(CN3CCOCC3)nc3c2c(=O)n(C)c(=O)n3C)cc1` yields viability of 102

Noted for `COc1cc2[nH]c(=O)n(CCCCCC(=O)N3CCN(c4ccccn4)CC3)c(=O)c2cc1OC` : its viability reads 89.3

Lookup result for `COC(=O)Cn1c(CN2CCOCC2)nc2c1c(=O)n(C)c(=O)n2C` ; measured viability: 99.8

Entry under test: `CCCn1c(NCc2cc(C)ccc2O)nc2ccccc21` . Its viability was 77.9

viability for `CCn1cc(C(=O)NCc2ccccc2OC)c(=O)c2cc(S(=O)(=O)N(C)C)ccc21` is 77.6

viability in this record for `CCOC(=O)N1CCN(C(=O)CN(C2CCCCC2)S(=O)(=O)c2ccc(F)cc2)CC1` : 97.7

The value of viability measured for the compound `CCCN1CCN(CCCNC(=O)Cn2ncc3c4ccccc4n(C)c3c2=O)CC1` turned out to be 102

Sample `O=C(NCCC1=CCCCC1)C1CCN(S(=O)(=O)c2cccc3cccnc23)CC1` ; viability observed: 97

The measured viability associated with CC(=O)N1c2c(cc(Br)cc2S(=O)(=O)N2CCN(c3ccccn3)CC2)CC1C (configuration not stated) reads 86.6

The compound listed as `Cc1cc(C(N)=O)c2cc(Br)ccc2n1` has a reported viability of 91.2

compound CC1Cc2nc(SCC(=O)Nc3ccc4c(c3)OCO4)n(-c3ccc(F)cc3)c(=O)c2S1 (configuration not stated) , viability observed: 89.2

// sample `COc1ccc(CCNC(=O)c2cnn3ccccc23)c(OC)c1OC` , its viability was 96.5

The value of viability measured for the compound `CCOC(=O)c1ccccc1NC(=O)c1ccc2c(=O)n3c(nc2c1)CCCCC3` turned out to be 84.4
